Reference for the values: PubChem BioAssay (NCI)

# Tested on: SNB-19 CNS
# TEST SUMMARY: NCI tumour cell line growth inhibition, 48 h

{"columns": ["COMPOUND", "BOUND OPERATOR", "TGI / µM"],
 "data": [
  ["Cc1cc2ncn(-c3nc4ccccc4nc3C(C#N)S(C)(=O)=O)c2cc1C (stereo not drawn)", ">", 100],
  ["CCOC(=O)CSc1cc(Cl)c(C)cc1S(=O)(=O)/N=C(/N=C/c1ccc([N+](=O)[O-])s1)NNC", "=", 80.1],
  ["O=S1(=O)N2CN3CN(C2)CN1C3", "=", 856]
]}

----------
# Tested on: 786-0 renal
# TEST SUMMARY: NCI tumour cell line growth inhibition, 48 h
Here the recorded TGI is given for each entry.

{"columns": ["COMPOUND", "TESTED TARGET", "TGI"],
 "data": [
  ["CCCCN(CCCC)C(=O)[C@H](CC)[C@@H]1CC[C@@H](C)[C@@H]([C@H](C)[C@@H](O)[C@@H](C)C(=O)[C@H](CC)C2O[C@]3(C=C[C@@H](O)[C@]4(CC[C@@](C)([C@H]5CC[C@](O)(CC)[C@H](C)O5)O4)O3)[C@H](C)C[C@@H]2C)O1 (stereo partly drawn)", "786-0 renal", "7.44 µM"],
  ["C[C@@H](CC(O)C(O)C(C)(C)O)C1CCC23CC12CCC1[C@@]2(C)CCC(O)C(C)(C)C2CC(OC2OC(CO)C(O)C(O)C2O)[C@]13C (stereo partly drawn)", "786-0 renal", "> 10 µM"],
  ["O=C1N/C(=N\\N=C\\c2ccccc2)C(c2ccccc2)O1 (stereo not drawn)", "786-0 renal", "> 100 µM"],
  ["CC(C)/C=C1\\CCC(CN(C)C)C1=O (stereo not drawn)", "786-0 renal", "1.25 µM"],
  ["CC(=O)C1CCN(c2ccccc2)C1 (stereo not drawn)", "786-0 renal", "> 100 µM"],
  ["CCN1CCN(c2nc(C)cc(N(CCCNc3ccnc4cc(Cl)ccc34)Cc3ccc4c(c3)OCO4)n2)CC1", "786-0 renal", "2.95 µM"],
  ["CCOC(=O)c1c(-c2ccccc2)[n+](=O)c2cc(Cl)c(Cl)cc2n1[O-]", "786-0 renal", "2.87 µM"],
  ["C[C@H]1CC[P+](Cc2ccccc2)(c2ccccc2)C1 (stereo partly drawn)", "786-0 renal", "> 100 µM"],
  ["Cc1c(O)c(=O)ccn1CCN", "786-0 renal", "> 100 µM"],
  ["O=C1NC(=NCCc2ccc(F)cc2)S/C1=C\\c1ccc2ncccc2c1", "786-0 renal", "> 25 µM"],
  ["CN(C)CCN(C)P12(Oc3ccccc3O1)Oc1c(Cl)c(Cl)c(Cl)c(Cl)c1O2", "786-0 renal", "> 100 µM"],
  ["COC(=O)C1(NC(=O)C(Cc2ccccc2)N(C(=O)OC(C)(C)C)C(=O)OC(C)(C)C)CCCC1 (stereo not drawn)", "786-0 renal", "> 10 µM"],
  ["COC(=O)C(=O)C(C(=O)OC)C(=O)C(=O)Nc1c(C)cccc1C (stereo not drawn)", "786-0 renal", "> 100 µM"],
  ["COc1ccccc1/C=C(/C)[N+](=O)[O-]", "786-0 renal", "> 100 µM"],
  ["COC(=O)c1ccc2c(c1)CC1(C2)Cc2cc3c(cc2C1)CCC3", "786-0 renal", "> 100 µM"],
  ["CC(=O)Nc1[nH]n(C)c(=O)c1-c1nnc(C)s1", "786-0 renal", "> 100 µM"],
  ["C=C1CC(C)(COc2ccc3c(C)c(Cl)c(=O)oc3c2)OC1=O (stereo not drawn)", "786-0 renal", "4.65 µM"],
  ["CC1(C)CCC(Sc2ccccc2)O1 (stereo not drawn)", "786-0 renal", "> 100 µM"]
]}
